Tested on: HT-29
assay_overview: NCI tumour cell line growth inhibition, 48 h
The source made the active and inactive calls. No stated cut-off is given here; in the data, active = GI50 up to about 1.1 µM and inactive = higher.
So I've got a bunch of compounds here, and I need their GI50 values.

Kindly note the recorded GI50 for CCOC(=O)CCC(NC(=O)OCc1ccccc1)C(=O)NC(CCC(=O)OCC)C(=O)NC(CCC(=O)OCC)C(=O)NC(CCC(=O)OCC)C(=O)NC(CCC(=O)OCC)C(=O)OCC (stereo unspecified) , which is > 100 µM (inactive)

Kindly note the recorded GI50 for CCC(C(=O)C(=O)OC)P1(=O)OC(C)(C)CN1C(C)(C)C (stereo unspecified) , which is > 100 µM (inactive)

Kindly note the recorded GI50 for `O=C1C[C@H](Sc2ccccc2)C2(OCCO2)[C@@H](Sc2ccccc2)C1` , which is 1.64 µM (inactive)

Kindly note the recorded GI50 for COc1ccc2c(c1OC)C(Br)CCC(Br)(Br)C2=O (stereo unspecified) , which is 4.43 µM (inactive)

Kindly note the recorded GI50 for CC1(Cl)CCC2(CC(Br)=CC3OC32C)CC1Br (stereo unspecified) , which is 17.9 µM (inactive)

Kindly note the recorded GI50 for Cc1ccccc1N(CCC#N)C1=NN(C(=O)CC(=O)Nc2ccccc2)C(c2ccccc2)C1 (stereo unspecified) , which is > 100 µM (inactive)

Kindly note the recorded GI50 for `NC(=S)N1N=C2CCCCCC[C@@H]2[C@H]1c1ccccc1` , which is 29.2 µM (inactive)

Kindly note the recorded GI50 for `CCCC#CCOC(=O)c1cc([N+](=O)[O-])cc([N+](=O)[O-])c1` , which is > 100 µM (inactive)

Kindly note the recorded GI50 for COC(=O)C1Cc2c(C)cccc2C1=O (stereo unspecified) , which is > 100 µM (inactive)

Kindly note the recorded GI50 for COc1nc2c(c(O)c(C)c(=O)n2OC2OC(COC(C)=O)C(OC(C)=O)C(OC(C)=O)C2OC(C)=O)c(=O)n1C (stereo unspecified) , which is > 100 µM (inactive)

Kindly note the recorded GI50 for CCCCCC(O)[C@H]1C(=O)C[C@@H](O[Si](C)(C)C(C)(C)C)[C@@H]1/C=C/CCOCc1ccccc1 (stereo partly specified) , which is 9.59 µM (inactive)

Kindly note the recorded GI50 for `C=CCNC(=S)NNC(=O)c1c(C)nc2sccn12` , which is > 100 µM (inactive)

Kindly note the recorded GI50 for O=C(NC(CCCCN1C(=O)c2ccccc2C1=O)P(=O)(Oc1ccccc1)Oc1ccccc1)OCc1ccccc1 (stereo unspecified) , which is > 100 µM (inactive)

Kindly note the recorded GI50 for `CCc1cccc(C)c1NC(C)=O` , which is > 100 µM (inactive)

Kindly note the recorded GI50 for CC12CCC(=O)N1c1cccnc1N2 (stereo unspecified) , which is > 100 µM (inactive)

Kindly note the recorded GI50 for `C=C1[C@@H]2CCC(C)(C)[C@H]1CCC(=O)[C@@H]2C(=O)OC` , which is > 100 µM (inactive)

Kindly note the recorded GI50 for `CN1NC2(CCCCC2)ON=C1c1ccccc1` , which is > 100 µM (inactive)

Kindly note the recorded GI50 for `Nc1cc(CO)cc(Nc2c3ccccc3nc3occc23)c1` , which is 6.76 µM (inactive)

Kindly note the recorded GI50 for `N#CCc1c(F)c(F)c(F)c(F)c1F` , which is > 100 µM (inactive)

Kindly note the recorded GI50 for `Cn1ccnc1Sc1ccc(/C=N/NC(=O)c2ccccc2[N+](=O)[O-])cc1[N+](=O)[O-]` , which is 35.6 µM (inactive)

Kindly note the recorded GI50 for N=C(N)NCCCCCCC(=O)NC(O)C(=O)NCCCCNCCCN (stereo unspecified) , which is > 750 µM (inactive)
